The measurements presented in this section are drawn from ChEMBL document CHEMBL1139132.

- Tested on: Staphylococcus aureus
- protocol: Inhibition of NorA pump in fluoroquinolone-resistant Staphylococcus aureus SA1199B assessed as drug level causing 8-fold reduction of Norfloxacin MIC
- Assay type: functional
Catalogue of compounds with associated Activity
Dear colleague, please return just the value in µM, with no unit written.

COc1ccc(/C=C/C(=O)NCCc2c[nH]c3ccccc23)cc1OC
57
COc1ccc(/C=C/C(=O)NCCc2ccc(OC)c(OC)c2)cc1OC
162

Query block: What does the data say about its Activity? Entry: `O=C(/C=C/c1ccc(O)c(O)c1)NCCc1ccc(O)c(O)c1`
Result block: 317

Query block: What does the data say about its Activity? Entry: `COc1ccc(/C=C/C(=O)NCCc2ccc(O)c(O)c2)cc1OC`
Result block: 292
